# Test Description: activity coefficient (dimensionless); of the first substance listed, at infinite dilution; xn = mol fraction of the nth substance listed
# Measurement Conditions: 418.15 K; 101 kPa; Liquid; Chromatography; x1 = 0
Recorded measurements of activity coefficient, one per entry
// print number alone

{"Compound": "C=CCCCCCCCCCC [1-dodecene] + CCCCCCCCCCCCCCCCCCC(CCCCCCCCCCCCCCCCCC)CCCCC(CCCCCCCCCCCCCCCCCC)CCCCCCCCCCCCCCCCCC", "Measured Number": 0.453}
{"Compound": "CC1CCCCC1 [methylcyclohexane] + CCCCCCCCCCCCCCCCCCC(CCCCCCCCCCCCCCCCCC)CCCCC(CCCCCCCCCCCCCCCCCC)CCCCCCCCCCCCCCCCCC", "Measured Number": 0.272}

Summary for this compound, CCCCCC [hexane] + CCCCCCCCCCCCCCCCCCC(CCCCCCCCCCCCCCCCCC)CCCCC(CCCCCCCCCCCCCCCCCC)CCCCCCCCCCCCCCCCCC : activity coefficient is 0.351

Values from the NIST ThermoML archive (doi:10.1016/j.fluid.2006.07.015)
